- Tested on: NCI-H522
- Experiment Description: NCI-60 single dose screen, NCI-H522
- Format: cell-based
- Details: Homo sapiens, NSCLC, single concentration 10^−5 M, read-out: IGP (inhibition growth percent) NCI-H522
Response key: 1 (yes) means inhibition at 10 µM >= 10%; 0 (no) means inhibition at 10 µM < 10%.

Completed entries (count: 3):
O=C(Nc1ccccc1)c1cc(S(=O)(=O)Nc2nc(-c3ccccc3)c3ccccc3n2)c(SCc2ccccc2)cc1Cl: 1 (yes)
Cc1cc(S(=O)(=O)Nc2nc(-c3ccccc3)c3ccccc3n2)c(SCC(N)=O)cc1Cl: 0 (no)
NC(=O)CSc1cc(Cl)c(C(=O)Nc2ccc(Cl)cc2)cc1S(=O)(=O)Nc1nc(-c2ccccc2)c2ccccc2n1: 1 (yes)

Is inhibition at 10 µM at least 10%? Consider Cc1cc(S(=O)(=O)Nc2nc(-c3ccccc3)c3ccccc3n2)c(SCc2cc3c(cc2Cl)OCO3)cc1Cl
1 (yes)

Is inhibition at 10 µM at least 10%? Consider Cc1ccc(NC(=O)c2cc(S(=O)(=O)Nc3nc(-c4ccccc4)c4ccccc4n3)c(SCc3ccccc3)cc2Cl)cc1
1 (yes)
